Experiment: Pharmacokinetics (PK) of CDD-2807 in mice
Format: in vivo
Details: male, C57BL/6NJ, mouse, ip, i.p. injection 25 mg/kg, plasma
Outcome Measure: AUC(0-t)

stdin: // AUC(0-t) lookup, key: O=C(c1ccc2[nH]nc(C#Cc3ccccc3-c3ccccc3)c2c1)N1CC2(CCCNC2)C1 [CDD-2807]
stdout: 55.5 µM·h

###

Experiment: Pharmacokinetics (PK) of CDD-2807 in mice
Assay type: in vivo
Conditions: male, C57BL/6NJ, mouse, ip, i.p. injection 5 mg/kg, plasma, read-out: t1/2 (converted)
Outcome Measure: half-life (h)
Numeric answer only, unit h assumed.

stdin: // half-life lookup, key: O=C(c1ccc2[nH]nc(C#Cc3ccccc3-c3ccccc3)c2c1)N1CC2(CCCNC2)C1 [CDD-2807]
stdout: 11.9

Entry source: paper PMC11842024
